Test system: MDA-MB-435
Test: NCI tumour cell line growth inhibition, 48 h
Active and inactive are the calls of the source. Cut-off read from the data, not from the text of the source: active = GI50 up to about 1.1 µM and inactive = higher.
Tick one outcome: t = active, f = inactive

Completed entries (count: 2):
molecule: O=C(O)c1nc(-c2ccccn2)c(-c2ccccn2)nc1C(=O)O
answerLabel: f
--
molecule: CC1(C)N=C2C(=O)c3c([nH]c4ccccc34)[C@]3(C)CCC1CC23 (stereo partly specified)
answerLabel: f

(Q) Per the records of this test, what outcome belongs to "Nc1cc(F)ccc1CC(=O)O" ?
(A) f

(Q) What classification did "CN(C)C(=S)/N=c1\ssc(=S)n1Cc1cccs1" end up with in this test?
(A) t

(Q) What did the test return for "CC(C)OC(=O)c1ccc(CCc2cc(O)c(Br)cc2O)cc1" ?
(A) f

(Q) What was the test verdict on "O=C1C[C@H]2[C@H](c3ccc(Br)cc3)[C@H]3C(=O)c4ccccc4NC(=O)[C@@H]3[C@@]2(O)c2ccccc2N1" ?
(A) f
